Taken from PubChem BioAssay (NCI).

system: HL-60(TB) leukemia; experiment: NCI tumour cell line growth inhibition, 48 h; in the data active = GI50 below about 0.43 µM; inactive = the rest
Hello, when you answer, please use one of the following outcomes: Yes (active), No (inactive)

Examples with answers:
| compound | study-system | class-assignment |
| --- | --- | --- |
| CCc1cc(Nc2nccc(-c3c(-c4ccc(OC)c(C(=O)Nc5c(F)cccc5F)c4)nc4ccccn34)n2)c(OC)cc1N1CCC(N2CCN(S(C)(=O)=O)CC2)CC1 | HL-60(TB) leukemia | No |
| CCOC(=O)Nc1ccc2nc(Sc3ccc(Cl)cc3)sc2c1 | HL-60(TB) leukemia | No |
| COC(=O)C([O][Ge]([CH3])([CH3])[CH3])c1ccccc1 (stereo not drawn) | HL-60(TB) leukemia | No |
| COc1ccc2c(c1)/C(=N/OC(C)=O)c1c-2c(Nc2ccc(/C(C)=N/OC(C)=O)cc2)nc2ccccc12 | HL-60(TB) leukemia | No |
| CN1CCN(Cc2ccc(NC(=O)c3cncc(C#Cc4cncc5[nH]ncc45)c3)cc2C(F)(F)F)CC1 | HL-60(TB) leukemia | Yes |
| CCn1c(-c2nonc2N)nc2c(C#CC(C)(C)O)ncc(OCC3CCNCC3)c21 | HL-60(TB) leukemia | No |
| CCN(CC)c1ccc(/C=C2/NC(=O)NC2=O)cc1 | HL-60(TB) leukemia | No |

Shift focus to the following entry.
Prompt: Test call, this compound: CO[C@H]1/C=C/C=C/C=C/C[C@H](OC(=O)[C@@H](C)NC(=O)C2CCCCC2)[C@H](C)[C@@H](O)/C(C)=C\CCC2=CC(=O)C=C(NC(=O)C1)C2=O
Response: Yes

----------
test system: ACHN renal; assay: NCI tumour cell line growth inhibition, 48 h
Entry flag: rule met if TGI reaches 5 µM; rule not met if it does not.

Examples with answers:
| molecule | class-assignment |
| --- | --- |
| CN(C)CC(C)(C)C(=O)/C=C/c1ccccc1 | rule met |
| O=C(N/N=C\c1cc(Br)cc(Br)c1O)N/N=C/c1cc(Br)cc(Br)c1O | rule met |
| C/C(=N/NC(=O)c1ccccc1Nc1ccccc1C(=O)N/N=C(\C)c1ccc(C)cc1)c1ccc(C)cc1 | rule met |

Prompt: Kindly determine if TGI recorded for CCN(CC)C(=O)c1ccc(C)c(N=NN(C)C)c1 is above or exactly 5 µM.
Response: rule met

Prompt: Kindly determine if TGI recorded for CC(=O)[O-].CC(=O)[O-].CC(=O)[O-].CC(=O)[O-].CO.CO.CO.[Rh+2].[Rh+2].c1ccc(-c2ccccn2)nc1 is above or exactly 5 µM.
Response: rule met

Prompt: Kindly determine if TGI recorded for CCN(CC)Cc1cc(Nc2c3ccc(Cl)cc3nc3c(C)cccc23)ccc1O is above or exactly 5 µM.
Response: rule not met

Prompt: Kindly determine if TGI recorded for COc1cc(C2CC(c3cc(Cl)c(C)cc3O)=NN2c2ccc(S(N)(=O)=O)cc2)cc(OC)c1OC (stereo unspecified) is above or exactly 5 µM.
Response: rule met

----------
tested on: SNB-78 CNS; assay: NCI tumour cell line growth inhibition, 48 h
metric: TGI (µM)
Please give a number only; it is taken to be in µM.

| compound | TGI [µM] |
| --- | --- |
| CC(C(=O)C(C)O[Si](c1ccccc1)(c1ccccc1)C(C)(C)C)=P(c1ccccc1)(c1ccccc1)c1ccccc1 (centres undefined) | 13.3 |

Moving on to another compound below.
Prompt: Return TGI measured with SNB-78 CNS given this compound: BrCC[N+]12CCCN1CCC2
Response: 37.5
